The origin of these recorded values is patent US11795169B2.

experiment: Pharmacokinetics in mice (IV and oral); settings: mouse, plasma, po, 50 mg kg-1
measured.quantity: concentration at 10 h (nM)
Kindly provide the numeric value in nM only, without the unit symbol.

Problem: Hello, please tell me recorded concentration at 10 h for this one: COCCOc1ccc(-c2cn(-c3ccccc3)c3nc[nH]c(=O)c23)cc1
Solution: 8

====

molecular target: GLK/MAP4K3 (Homo sapiens (Human), UniProt Q8IVH8); test: Kinase selectivity panel: GLK/MAP4K3; assay type: biochemical; settings: read-out: pIC50 GLK/MAP4K3 (converted)
Sequence (Q8IVH8 whole entry): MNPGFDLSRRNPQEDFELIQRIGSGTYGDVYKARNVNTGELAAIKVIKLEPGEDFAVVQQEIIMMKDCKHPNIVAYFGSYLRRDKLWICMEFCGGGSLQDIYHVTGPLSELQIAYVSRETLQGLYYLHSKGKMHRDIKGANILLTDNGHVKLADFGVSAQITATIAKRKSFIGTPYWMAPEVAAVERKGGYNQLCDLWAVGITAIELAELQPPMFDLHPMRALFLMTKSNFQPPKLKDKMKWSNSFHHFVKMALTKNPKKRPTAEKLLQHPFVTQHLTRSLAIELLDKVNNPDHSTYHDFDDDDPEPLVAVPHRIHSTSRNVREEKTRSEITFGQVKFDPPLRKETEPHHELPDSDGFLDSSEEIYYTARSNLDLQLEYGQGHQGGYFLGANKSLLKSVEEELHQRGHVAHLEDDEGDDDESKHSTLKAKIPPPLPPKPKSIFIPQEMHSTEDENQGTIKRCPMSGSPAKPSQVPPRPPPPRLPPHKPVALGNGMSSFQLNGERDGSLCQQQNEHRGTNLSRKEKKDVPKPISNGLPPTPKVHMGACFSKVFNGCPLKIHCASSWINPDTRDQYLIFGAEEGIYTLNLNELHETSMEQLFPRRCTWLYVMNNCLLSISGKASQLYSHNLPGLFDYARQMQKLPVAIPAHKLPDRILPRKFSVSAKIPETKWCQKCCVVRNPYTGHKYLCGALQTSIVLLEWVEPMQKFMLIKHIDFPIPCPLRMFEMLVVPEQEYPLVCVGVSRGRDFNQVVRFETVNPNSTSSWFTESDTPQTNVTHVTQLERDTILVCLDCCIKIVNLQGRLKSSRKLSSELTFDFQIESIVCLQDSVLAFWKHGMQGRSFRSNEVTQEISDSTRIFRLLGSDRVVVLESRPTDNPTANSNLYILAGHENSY
measured.quantity: IC50 (µM)
Response body: numeric value in µM, unit text excluded.

Some solved cases for reference:
INSERT INTO results (compound, assay_result) VALUES
  ('COc1cccc(-c2cn(-c3ccccc3)c3nc[nH]c(=O)c23)c1 [Ex-22]', 31.6),
  ('O=c1[nH]cnc2c1c(-c1ccc(OCCO)cc1F)cn2-c1ccccc1 [Ex-56]', 31.6),
  ('O=C1NCCN1c1ccc(-c2cn(-c3ccccc3)c3nc[nH]c(=O)c23)cc1 [Ex-61]', 31.6);

We next turn to a different compound, shown below.
Problem: Specify reported IC50 for the compound shown: O=c1[nH]cnc2c1c(-c1ccc(OCCCN3CCOCC3)cc1)cn2-c1ccccc1 [Ex-27]
Solution: 1.58

====

target: KHS/MAP4K5 (Homo sapiens (Human)); assay: Kinase selectivity panel: KHS/MAP4K5; format: biochemical; conditions: read-out: pIC50 KHS/MAP4K5 (converted)
Sequence (Q9Y4K4 whole entry): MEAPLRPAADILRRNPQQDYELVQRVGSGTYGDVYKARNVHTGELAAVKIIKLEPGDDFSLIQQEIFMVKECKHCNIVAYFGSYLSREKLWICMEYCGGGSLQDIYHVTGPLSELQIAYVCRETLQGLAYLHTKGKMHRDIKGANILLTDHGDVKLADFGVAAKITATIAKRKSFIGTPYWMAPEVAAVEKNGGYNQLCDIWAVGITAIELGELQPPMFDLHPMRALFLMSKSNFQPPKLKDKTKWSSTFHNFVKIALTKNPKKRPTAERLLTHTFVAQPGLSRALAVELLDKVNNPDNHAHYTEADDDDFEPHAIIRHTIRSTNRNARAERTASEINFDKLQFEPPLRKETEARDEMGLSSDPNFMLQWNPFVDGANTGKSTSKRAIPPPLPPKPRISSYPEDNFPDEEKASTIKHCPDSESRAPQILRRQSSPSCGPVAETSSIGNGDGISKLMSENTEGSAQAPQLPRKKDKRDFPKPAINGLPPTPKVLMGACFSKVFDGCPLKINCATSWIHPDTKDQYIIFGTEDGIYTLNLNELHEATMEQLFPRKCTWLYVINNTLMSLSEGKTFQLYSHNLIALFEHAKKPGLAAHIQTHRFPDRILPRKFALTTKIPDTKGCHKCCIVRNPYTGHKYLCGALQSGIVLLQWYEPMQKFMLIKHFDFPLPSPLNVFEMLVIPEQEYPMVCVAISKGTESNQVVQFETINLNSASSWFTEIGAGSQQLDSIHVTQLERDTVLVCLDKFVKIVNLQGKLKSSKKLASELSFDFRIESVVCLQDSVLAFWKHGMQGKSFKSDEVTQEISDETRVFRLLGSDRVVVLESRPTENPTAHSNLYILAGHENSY
Overview of reported IC50 across a group of molecules:
Just the number please, in nM, no unit attached.

INSERT INTO assay_data (input_smiles, assay_result) VALUES
  ('O=c1[nH]cnc2c1c(-c1ccc(OCCO)cc1F)cn2-c1ccccc1', 1000),
  ('O=c1[nH]cnc2c1c(-c1ccc(OCCCN3CCOCC3)cc1)cn2-c1ccccc1', 39.8),
  ('COc1cccc(-c2cn(-c3ccccc3)c3nc[nH]c(=O)c23)c1', 437);

Continue with the molecule presented below.
Problem: Report measured IC50; entry is O=C1NCCN1c1ccc(-c2cn(-c3ccccc3)c3nc[nH]c(=O)c23)cc1
Solution: 1000

====

test system: CorV.4U cardiomyocytes (hiPSC-CMs); experiment: Protection of CorV.4U cardiomyocytes from H2O2 or menadione (luminescent cell viability assay, human cardiac troponin assay); format: cell-based; settings: Homo sapiens, Cardiomyocyte; H2O2 as death trigger; read-out: Protection in human iPSC-derived ventricular cardiomyocytes, EC50 H202
measured.quantity: EC50 (µM)
Please respond with the number in µM and leave the unit unwritten.

INSERT INTO results (input_smiles, assay_result) VALUES
  ('O=c1[nH]cnc2c1c(-c1ccc(OCC3(CO)COC3)cc1)cn2-c1ccccc1', 0.469);

The record that follows has no EC50 shown yet.
Problem: Supply EC50 value. Item: COCCOc1ccc(-c2cn(-c3ccccc3)c3nc[nH]c(=O)c23)cc1
Solution: 0.403

====

target: GCK/MAP4K2 (Homo sapiens (Human)); experiment: Kinase selectivity panel: GCK/MAP4K2; assay type: biochemical; conditions: read-out: pIC50 GCK/MAP4K2 (converted)
Sequence (Q12851 whole entry): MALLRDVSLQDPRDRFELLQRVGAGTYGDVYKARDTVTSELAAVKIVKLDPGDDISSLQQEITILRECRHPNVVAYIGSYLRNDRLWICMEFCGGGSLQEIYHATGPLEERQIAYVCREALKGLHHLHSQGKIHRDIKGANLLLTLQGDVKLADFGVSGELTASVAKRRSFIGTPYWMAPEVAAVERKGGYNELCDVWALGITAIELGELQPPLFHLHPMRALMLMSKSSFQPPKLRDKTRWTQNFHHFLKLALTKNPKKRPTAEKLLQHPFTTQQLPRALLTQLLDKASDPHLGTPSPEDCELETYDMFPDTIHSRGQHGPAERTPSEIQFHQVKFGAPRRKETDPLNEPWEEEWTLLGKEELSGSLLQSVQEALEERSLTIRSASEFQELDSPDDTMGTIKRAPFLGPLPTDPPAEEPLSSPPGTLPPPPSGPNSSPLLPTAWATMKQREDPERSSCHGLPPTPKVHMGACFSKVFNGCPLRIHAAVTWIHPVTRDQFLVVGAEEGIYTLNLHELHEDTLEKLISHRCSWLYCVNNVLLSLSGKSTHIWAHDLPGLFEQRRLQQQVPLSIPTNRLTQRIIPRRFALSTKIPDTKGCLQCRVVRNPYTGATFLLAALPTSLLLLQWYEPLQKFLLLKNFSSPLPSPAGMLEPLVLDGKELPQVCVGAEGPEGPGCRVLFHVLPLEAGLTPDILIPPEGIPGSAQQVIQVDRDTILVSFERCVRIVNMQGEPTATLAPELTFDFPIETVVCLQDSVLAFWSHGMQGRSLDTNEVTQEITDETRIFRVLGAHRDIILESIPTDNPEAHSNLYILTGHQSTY
measured.quantity: IC50

INSERT INTO results (input_smiles, system, assay_result) VALUES
  ('O=c1[nH]cnc2c1c(-c1ccc(OCCCN3CCOCC3)cc1)cn2-c1ccccc1', 'GCK/MAP4K2 (Homo sapiens (Human))', '200 nM'),
  ('O=C1NCCN1c1ccc(-c2cn(-c3ccccc3)c3nc[nH]c(=O)c23)cc1', 'GCK/MAP4K2 (Homo sapiens (Human))', '316 nM'),
  ('COc1cccc(-c2cn(-c3ccccc3)c3nc[nH]c(=O)c23)c1', 'GCK/MAP4K2 (Homo sapiens (Human))', '7940 nM');

Let's switch to this compound now.
Problem: Provide IC50 value for the following compound: O=c1[nH]cnc2c1c(-c1ccc(OCCO)cc1F)cn2-c1ccccc1
Solution: 398 nM
